B1: FOXJ1 (parent)
chain: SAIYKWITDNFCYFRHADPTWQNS

- Variants of: B1
- protocol: protein stability index of a GFP-peptide fusion (GPS, HEK-293T) (PSI 1-6); higher = more stable;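 further: lentivirally expressed fusions sorted by FACS into six bins by GFP to DsRed ratio, PSI derived from sequencing read proportions per bin multiplied by bin number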
- runParameters: c terminus: a fixed tail appended
Hi, to clarify the labels: Criterion met covers protein stability index from 3 upward, Criterion not met covers anything below 3.

Example entries begin here.
T20Y = Criterion not met
P19R = Criterion met
I7C = Criterion not met
I7G = Criterion not met
K5W = Criterion not met
Y13Q = Criterion not met
Y13G = Criterion met
A17G = Criterion not met

[in] Quick check: does C12Q have protein stability index greater than or equal to 3?
[out] Criterion not met

[in] Quick check: does F11S have protein stability index greater than or equal to 3?
[out] Criterion met

[in] Quick check: does F14M have protein stability index greater than or equal to 3?
[out] Criterion not met

[in] Quick check: does N23G have protein stability index greater than or equal to 3?
[out] Criterion met

[in] Quick check: does C12I have protein stability index greater than or equal to 3?
[out] Criterion not met

[in] Quick check: does A17M have protein stability index greater than or equal to 3?
[out] Criterion met

[in] Quick check: does Y13L have protein stability index greater than or equal to 3?
[out] Criterion not met

[in] Quick check: does I7V have protein stability index greater than or equal to 3?
[out] Criterion not met

[in] Quick check: does Y4C have protein stability index greater than or equal to 3?
[out] Criterion not met

Ref: the supplement of paper PMC10567573
